These data points were gathered from patent US20260365653A1.

Biological target: mutEGFR (D770_N771insSVD) (Homo sapiens, UniProt P00533, DUP768-770)
Construct: GST-EGFR #3 (SVD between D770 and N771); made in house; host or cells: Sf9 insect cells (baculovirus)
Sequence (P00533 with tags, fused parts or gaps DUP768-770): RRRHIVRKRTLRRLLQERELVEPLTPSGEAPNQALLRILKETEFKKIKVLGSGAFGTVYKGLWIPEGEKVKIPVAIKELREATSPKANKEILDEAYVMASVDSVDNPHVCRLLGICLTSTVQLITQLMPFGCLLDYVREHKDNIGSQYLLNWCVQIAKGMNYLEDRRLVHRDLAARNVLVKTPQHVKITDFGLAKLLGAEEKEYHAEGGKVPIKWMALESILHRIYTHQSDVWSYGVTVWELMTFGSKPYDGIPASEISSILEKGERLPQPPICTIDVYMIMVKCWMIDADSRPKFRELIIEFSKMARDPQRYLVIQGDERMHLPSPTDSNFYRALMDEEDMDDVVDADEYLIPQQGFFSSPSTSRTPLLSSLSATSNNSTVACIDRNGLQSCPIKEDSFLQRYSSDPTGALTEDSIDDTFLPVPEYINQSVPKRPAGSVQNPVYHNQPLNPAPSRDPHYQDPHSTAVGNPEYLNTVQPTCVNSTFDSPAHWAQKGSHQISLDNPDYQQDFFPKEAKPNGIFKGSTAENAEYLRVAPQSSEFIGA
Test: Exon20-Mutant-EGFR (D770_N771insSVD) kinase assay (TR-FRET)
Format: biochemical
Conditions: mutEGFR (D770_N771insSVD) kinase assay IC50, Table 2a; D770_N771insSVD; 2 mM ATP
PROPERTY LABEL: pIC50
Please treat pIC50 as minus the base-10 logarithm of the molar concentration.

Considering C=CC(=O)N1CCn2nc(Nc3ccc(Cl)cc3F)c(-c3ccnc4[nH]cc(C)c34)c2C1 [Example 92] , its pIC50 with mutEGFR (D770_N771insSVD) (Homo sapiens, UniProt P00533, DUP768-770) was recorded as 7.61

Considering C=CC(=O)N1CCn2nc(-c3cccc(C#N)c3F)c(-c3ccncc3)c2C1 [Example 120] , its pIC50 with mutEGFR (D770_N771insSVD) (Homo sapiens, UniProt P00533, DUP768-770) was recorded as 7.30

Considering C=CC(=O)N1Cc2c(-c3ccnc4[nH]cc(C)c34)c(-c3ccc(F)cc3)nn2C[C@@H]1C [Example 251] , its pIC50 with mutEGFR (D770_N771insSVD) (Homo sapiens, UniProt P00533, DUP768-770) was recorded as 7.39

Considering C=CC(=O)N1CCn2nc(-c3ccc(Cl)cc3)c(-c3ccncc3)c2C1 [Example 3] , its pIC50 with mutEGFR (D770_N771insSVD) (Homo sapiens, UniProt P00533, DUP768-770) was recorded as 9.86

Considering COc1ccc(-c2nn3c(c2-c2ccncc2)CN(C(=O)/C=C/CN(C)C)CC3)c(F)c1 [Example 160] , its pIC50 with mutEGFR (D770_N771insSVD) (Homo sapiens, UniProt P00533, DUP768-770) was recorded as 8.83

Considering C=CC(=O)N1CCn2nc(-c3ccc(F)cc3)c(-c3ccnc(Nc4ccccc4)c3)c2C1 [Example 20] , its pIC50 with mutEGFR (D770_N771insSVD) (Homo sapiens, UniProt P00533, DUP768-770) was recorded as 8.45

Considering CN1CCN(C/C=C/C(=O)N2CCn3nc(-c4ccc(Cl)cc4)c(-c4ccncc4)c3C2)CC1 [Example 164] , its pIC50 with mutEGFR (D770_N771insSVD) (Homo sapiens, UniProt P00533, DUP768-770) was recorded as 8.52

Considering CC1c2c(-c3ccnc4[nH]ccc34)c(-c3ccc(F)cc3)nn2CCN1C(=O)/C=C/CN(C)C (single isomer, unassigned; isomer 2) [Example 267] , its pIC50 with mutEGFR (D770_N771insSVD) (Homo sapiens, UniProt P00533, DUP768-770) was recorded as 7.60

Considering C=CC(=O)N1CCn2nc(-c3ccc(F)cc3)c(-c3ccnc4[nH]ccc34)c2C1C (single isomer, unassigned; isomer 1) [Example 249] , its pIC50 with mutEGFR (D770_N771insSVD) (Homo sapiens, UniProt P00533, DUP768-770) was recorded as 6.43

Considering Cc1c[nH]c2nccc(-c3c(-c4ccc(C(F)(F)F)cc4)nn4c3CN(C(=O)/C=C/CN(C)C)CC4)c12 [Example 58] , its pIC50 with mutEGFR (D770_N771insSVD) (Homo sapiens, UniProt P00533, DUP768-770) was recorded as 6.35

Considering C=CC(=O)N1CCn2nc(-c3cc4ccccc4cc3F)c(-c3ccncc3)c2C1 [Example 109] , its pIC50 with mutEGFR (D770_N771insSVD) (Homo sapiens, UniProt P00533, DUP768-770) was recorded as 9.95

Considering Cc1c[nH]c2nccc(-c3c(-c4cccc(C#N)c4)nn4c3CN(C(=O)/C=C/CN(C)C)[C@H](C)C4)c12 [Example 289] , its pIC50 with mutEGFR (D770_N771insSVD) (Homo sapiens, UniProt P00533, DUP768-770) was recorded as 5.17

Considering C=CC(=O)N1Cc2c(-c3ccncc3)c(-c3ccc(F)cc3)nn2C(CC(N)=O)C1 (stereo not drawn) [Example 224] , its pIC50 with mutEGFR (D770_N771insSVD) (Homo sapiens, UniProt P00533, DUP768-770) was recorded as 8.62

Considering C=CC(=O)N1CCn2nc(-c3ccc(Cl)cc3F)c(-c3ccncc3C)c2C1 [Example 50] , its pIC50 with mutEGFR (D770_N771insSVD) (Homo sapiens, UniProt P00533, DUP768-770) was recorded as 8.07

Considering CC#CC(=O)N1CCn2nc(-c3ccc(F)cc3)c(-c3ccncc3)c2C1 [Example 16] , its pIC50 with mutEGFR (D770_N771insSVD) (Homo sapiens, UniProt P00533, DUP768-770) was recorded as 7.26
